These measurements were taken from ChEMBL document CHEMBL1909046.

- target-or-test-system: C-X-C chemokine receptor type 2 (Homo sapiens); also: in other assays of this panel Not Active means under 50% inhibition at 10 µM
- Sequence (P25025 whole entry): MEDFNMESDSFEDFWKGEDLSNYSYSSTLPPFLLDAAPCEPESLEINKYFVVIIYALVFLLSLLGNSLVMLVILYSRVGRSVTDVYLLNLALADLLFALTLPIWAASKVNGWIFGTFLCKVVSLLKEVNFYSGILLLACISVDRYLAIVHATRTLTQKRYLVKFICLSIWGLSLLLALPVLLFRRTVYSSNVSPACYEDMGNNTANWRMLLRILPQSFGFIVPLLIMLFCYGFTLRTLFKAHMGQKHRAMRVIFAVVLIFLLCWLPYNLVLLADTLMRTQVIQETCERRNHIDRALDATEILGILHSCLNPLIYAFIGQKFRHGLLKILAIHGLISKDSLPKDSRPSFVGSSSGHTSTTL
- Type: cell membranes, Membrane
- applied-conditions: cho-k1
endpoint-name: IC50

                           substance                     target_or_test_system  observed_measurement
0                    CADMIUM ACETATE  C-X-C chemokine receptor type 2 (Homo sapiens)            Not Active
1               SODIUM NITROPRUSSIDE  C-X-C chemokine receptor type 2 (Homo sapiens)            Not Active
2                  LEAD (II) ACETATE  C-X-C chemokine receptor type 2 (Homo sapiens)            Not Active
3  LIPOPOLYSACCHARIDE E. COLI O55:B5  C-X-C chemokine receptor type 2 (Homo sapiens)            Not Active

====

- protocol-notes: DRUGMATRIX: GABAA, Muscimol, Central radioligand binding (ligand: [3H] Muscimol)
- Format: cell membranes, Rattus norvegicus, Wistar, Brain, Membrane
- applied-conditions: Not Active = under 50% inhibition at 10 µM
endpoint-name: Ki

>>> print(df.to_string())
                                   compound  endpoint_name  observed_measurement
0  CC1Cc2ccccc2N1NC(=O)c1ccc(Cl)c(S(N)(=O)=O)c1 (centres undefined) [INDAPAMIDE]             Ki            Not Active
1  COc1cc2c3cc1Oc1cc(ccc1O)C[C@@H]1c4c(cc(OC)c(O)c4Oc4ccc(cc4)C[C@@H]3N(C)CC2)CC[N+]1(C)C.[Cl-]             Ki            Not Active
2         Cc1ccc2cc3c(ccc4ccccc43)c3c2c1CC3             Ki            Not Active
3  CCCN1C[C@H](CSC)C[C@@H]2c3cccc4[nH]cc(c34)C[C@H]21 [PERGOLIDE]             Ki            Not Active
4  CC1=C2C(=CO[C@H](C)[C@H]2C)C(O)=C(C(=O)O)C1=O             Ki            Not Active
5               c1ccc([C@H]2CN3CCSC3=N2)cc1             Ki            Not Active
6                 N#CC(C#N)=Cc1ccc(O)c(O)c1             Ki            Not Active
7  Cc1ccc(/N=C/N(C)/C=N/c2ccc(C)cc2C)c(C)c1             Ki            Not Active
8                                 Cn1ccnc1S             Ki            Not Active
